Listed below: Complex formation values for each entry.
# ASSAYED_TARGET: DNA topoisomerase II (Homo sapiens) (UniProt P11388+Q02880)
# TEST_DETAILS: Percentage of intracellular covalent DNA-topoisomerase II complexes formed
# Format: cell-based
MEASURE: Complex formation (%)

[[record]]
molecule = "COc1cc([C@@H]2c3cc(O)c(O)cc3C(Nc3ccc(F)cc3)[C@H]3COC(=O)[C@H]23)cc(OC)c1O (some centres not stated)"
numeric_result = 52

[[record]]
molecule = "COc1cc([C@@H]2c3cc4c(cc3[C@@H](NC(=O)Nc3ccc(Cl)cc3)[C@H]3COC(=O)[C@H]23)OCO4)cc(OC)c1O"
numeric_result = 125

[[record]]
molecule = "COc1cc([C@@H]2c3cc4c(cc3[C@@H](Nc3ccc5c(c3)OCO5)[C@H]3COC(=O)[C@H]23)OCO4)cc(OC)c1O"
numeric_result = 164

[[record]]
molecule = "COc1cc([C@@H]2c3cc(O)c(O)cc3C(Nc3ccc(C#N)cc3)[C@H]3COC(=O)[C@H]23)cc(OC)c1OC (some centres not stated)"
numeric_result = 33

[[record]]
molecule = "COc1cc([C@@H]2c3cc4c(cc3[C@@H](Nc3ccc(NC(=O)c5cc([N+](=O)[O-])cn5C)cc3)[C@H]3COC(=O)[C@H]23)OCO4)cc(OC)c1O"
numeric_result = 100

[[record]]
molecule = "COC(=O)c1ccc(N[C@@H]2c3cc4c(cc3[C@@H](c3cc(OC)c(O)c(OC)c3)[C@H]3C(=O)OC[C@@H]32)OCO4)cc1O"
numeric_result = 129

[[record]]
molecule = "COc1cc([C@@H]2c3cc4c(cc3[C@@H](Nc3cc([N+](=O)[O-])cc([N+](=O)[O-])c3)[C@H]3COC(=O)[C@H]23)OCO4)cc(OC)c1O"
numeric_result = 20


Source: ChEMBL document CHEMBL1135425
